Target or test system: UniProtKB P11309
Sequence (P11309 whole entry): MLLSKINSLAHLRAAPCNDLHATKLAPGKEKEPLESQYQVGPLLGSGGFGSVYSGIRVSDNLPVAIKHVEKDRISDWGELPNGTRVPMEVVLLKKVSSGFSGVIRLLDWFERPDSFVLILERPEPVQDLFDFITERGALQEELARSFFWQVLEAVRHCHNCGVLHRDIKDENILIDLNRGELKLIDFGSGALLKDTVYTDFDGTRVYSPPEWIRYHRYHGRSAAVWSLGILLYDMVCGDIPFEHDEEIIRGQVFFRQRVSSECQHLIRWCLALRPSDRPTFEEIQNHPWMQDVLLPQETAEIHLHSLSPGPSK
Assay comment: Pim 1 AlphaScreen assay (high ATP)
Assay type: biochemical
Experimental setup: read-out: Pim1 IC50
Recorded metric: IC50 (nM)
Give bare numbers, in nM.

Here's what some known entries look like.
Smi	Target or test system	Unit spec	IC50
O=C(Nc1cc(=O)[nH]cc1[C@H]1C[C@@H](O)[C@H](O)[C@@H](CO)O1)c1ccc(F)c(-c2c(F)cccc2F)n1	UniProtKB P11309	nM	1430
COc1cc(F)c(-c2nc(C(=O)Nc3cnccc3[C@@H]3C[C@H](N)[C@@H](O)[C@H](C4CC4)O3)ccc2F)c(F)c1	UniProtKB P11309	nM	4
C[C@]1(O)[C@H](O)C[C@H](c2ccncc2NC(=O)c2nc(-c3c(F)cccc3F)ncc2N)O[C@@H]1C1CC1	UniProtKB P11309	nM	71.2

Continue with the next compound.
Quick one: IC50 of N[C@H]1C[C@@H](c2ccncc2NC(=O)c2csc(-c3c(F)cccc3F)n2)O[C@H]2CCC[C@H]21 ?
6.83
